Value source: patent US8128802B2

Each record here notes measured Relative activity (%).
# Test system: fructosyl amino acid oxidase
# Assay comment: Characteristics of fructosyl amino acid oxidase-immobilized column (Example 5)
# Type: biochemical
# Condition summary: sample concentration 10 mM; buffer pH 8.0, 37° C.
Metric name: Relative activity (%)

# Compound, Metric name, Result value
measured = [
    ("N[C@@H](Cc1c[nH]c2ccccc12)C(=O)O [Trp]", "Relative activity (%)", 13.0),
    ("NCCCC[C@H](N)C(=O)O [Lys]", "Relative activity (%)", 41.0),
    ("N[C@@H](CCC(=O)O)C(=O)O [Glu]", "Relative activity (%)", 0.0),
    ("NC(=O)CC[C@H](N)C(=O)O [Gln]", "Relative activity (%)", 6.0),
    ("C[C@@H](O)[C@H](N)C(=O)O [Thr]", "Relative activity (%)", 2.0),
    ("OC[C@@H](O)[C@@H](O)[C@H](O)[C@@H](O)CO [D-Sorbitol]", "Relative activity (%)", 0.0),
    ("OCC(O)CO [Glycerol]", "Relative activity (%)", 0.0),
    ("CC(C)C[C@H](N)C(=O)O [Leu]", "Relative activity (%)", 0.0),
    ("O=C[C@H](O)[C@@H](O)[C@@H](O)[C@H](O)CO [Galactose]", "Relative activity (%)", 0.0),
    ("N=C(N)NCCC[C@H](N)C(=O)O [Arg]", "Relative activity (%)", 1.0),
    ("N[C@@H](Cc1c[nH]cn1)C(=O)O [His]", "Relative activity (%)", 0.0),
    ("CC(C)[C@H](N)C(=O)O [Val]", "Relative activity (%)", 0.0),
    ("C[C@H](N)C(=O)O [Ala]", "Relative activity (%)", 0.0),
    ("O=C(O)[C@@H]1CCCN1 [Pro]", "Relative activity (%)", 2.0),
    ("O=C(CO)[C@@H](O)[C@H](O)[C@H](O)CO [Fructose]", "Relative activity (%)", 1.0),
    ("N[C@@H](Cc1ccccc1)C(=O)O [Phe]", "Relative activity (%)", 0.0),
    ("NC(=O)C[C@H](N)C(=O)O [Asn]", "Relative activity (%)", 0.0),
    ("O=C[C@H](O)[C@@H](O)[C@H](O)CO [Xylose]", "Relative activity (%)", 0.0),
    ("CSCC[C@H](N)C(=O)O [Met]", "Relative activity (%)", 8.0),
    ("NCC(=O)O [Gly]", "Relative activity (%)", 0.0),
    ("N[C@@H](CO)C(=O)O [Ser]", "Relative activity (%)", 0.0),
    ("N[C@@H](CC(=O)O)C(=O)O [Asp]", "Relative activity (%)", 0.0),
    ("N[C@@H](CS)C(=O)O [Cys]", "Relative activity (%)", 507.0),
]

====

# System: fructosyl amino acid oxidase
# Assay comment: Substrate specificity of fructosyl amino acid oxidase-immobilized column (Example 3)
# Assay type: biochemical
# Condition summary: buffers pH 8.0; normalized to 100 for the response to fructosyl glycine; 37° C.; dialysis module
Each record here notes measured Relative response value.

# Compound, Relative response value
measured = [
    ("O=C(CO)[C@@H](O)[C@H](O)[C@H](O)CO [Fructose]", 0.0),
    ("NCC(=O)O [Gly]", 0.0),
    ("N[C@@H](CCC(=O)O)C(=O)O [Glu]", 0.0),
    ("OCC(O)CO [Glycerol]", 0.0),
    ("CC(C)[C@H](N)C(=O)O [Val]", 0.0),
    ("CC(C)C[C@H](N)C(=O)O [Leu]", 0.0),
    ("NC(=O)C[C@H](N)C(=O)O [Asn]", 0.0),
    ("N[C@@H](CO)C(=O)O [Ser]", 0.0),
    ("N=C(N)NCCC[C@H](N)C(=O)O [Arg]", 0.0),
    ("O=C[C@H](O)[C@@H](O)[C@@H](O)[C@H](O)CO [Galactose]", 0.0),
    ("O=C[C@H](O)[C@@H](O)[C@H](O)CO [Xylose]", 0.0),
    ("N[C@@H](CC(=O)O)C(=O)O [Asp]", 0.0),
    ("N[C@@H](Cc1ccccc1)C(=O)O [Phe]", 0.0),
    ("O=C(O)[C@H](CCCCNCC(=O)[C@@H](O)[C@H](O)[C@H](O)CO)NCC(=O)[C@@H](O)[C@H](O)[C@H](O)CO [α, ε-Fructosyl lysine]", 1.1),
    ("NC(=O)CC[C@H](N)C(=O)O [Gln]", 0.2),
    ("C[C@@H](O)[C@H](N)C(=O)O [Thr]", 0.0),
    ("NCCCC[C@H](N)C(=O)O [Lys]", 0.0),
    ("OC[C@@H](O)[C@@H](O)[C@H](O)[C@@H](O)CO [D-Sorbitol]", 0.0),
    ("CC(C)[C@H](NC1(CO)O[C@H](CO)[C@@H](O)[C@@H]1O)C(=O)N[C@@H](Cc1c[nH]cn1)C(=O)O (stereo partly drawn) [Fructosyl valyl histidine]", 1.3),
    ("CSCC[C@H](N)C(=O)O [Met]", 0.1),
    ("N[C@@H](Cc1c[nH]cn1)C(=O)O [His]", 0.0),
    ("C[C@H](N)C(=O)O [Ala]", 0.0),
    ("O=C(O)[C@@H]1CCCN1 [Pro]", 0.0),
    ("N[C@@H](Cc1c[nH]c2ccccc12)C(=O)O [Trp]", 0.0),
]

====

Each record here notes measured Relative activity (%) pH 7.0.
# Test system: fructosyl peptide oxidase
# Assay comment: Substrate specificity, pH profile and stability of fructosyl peptide oxidase-immobilized column (Example 1)
# Type: biochemical
# Condition summary: buffer pH 7.0; normalized to 100 for the response to fructosyl valine at each pH; 30° C.
Metric name: Relative activity (%) pH 7.0

# Molecule, Metric name, Unit descriptor, Result value
records = [
    ("N[C@@H](Cc1c[nH]c2ccccc12)C(=O)O", "Relative activity (%) pH 7.0", "%", 0),
    ("CC(C)[C@H](NC1(CO)O[C@H](CO)[C@@H](O)[C@@H]1O)C(=O)N[C@@H](Cc1c[nH]cn1)C(=O)O (stereo partly shown)", "Relative activity (%) pH 7.0", "%", 87),
    ("O=C(CO)[C@@H](O)[C@H](O)[C@H](O)CO", "Relative activity (%) pH 7.0", "%", 0),
    ("NCC(=O)O", "Relative activity (%) pH 7.0", "%", 0),
    ("C[C@H](N)C(=O)O", "Relative activity (%) pH 7.0", "%", 0),
    ("O=C[C@H](O)[C@@H](O)[C@H](O)CO", "Relative activity (%) pH 7.0", "%", 0),
    ("O=C(O)[C@H](CCCCNCC(=O)[C@@H](O)[C@H](O)[C@H](O)CO)NCC(=O)[C@@H](O)[C@H](O)[C@H](O)CO", "Relative activity (%) pH 7.0", "%", 10),
    ("NC(=O)CC[C@H](N)C(=O)O", "Relative activity (%) pH 7.0", "%", 0),
    ("N[C@@H](CO)C(=O)O", "Relative activity (%) pH 7.0", "%", 0),
    ("O=C[C@H](O)[C@@H](O)[C@@H](O)[C@H](O)CO", "Relative activity (%) pH 7.0", "%", 0),
]

====

# System: fructosyl peptide oxidase
# Assay comment: Substrate specificity, pH profile and stability of fructosyl peptide oxidase-immobilized column (Example 1)
# Assay type: biochemical
# Condition summary: buffer pH 7.0; normalized to 100 for the response to fructosyl valine at each pH; 30° C.
Each record here notes measured Relative activity (%) pH 7.0.

# Molecular string, Unit descriptor, Relative activity (%) pH 7.0
data = [
    ("OCC(O)CO", "%", 0),
    ("N[C@@H](CC(=O)O)C(=O)O", "%", 0),
    ("NC(=O)C[C@H](N)C(=O)O", "%", 0),
    ("NCCCC[C@H](N)C(=O)O", "%", 0),
    ("C[C@@H](O)[C@H](N)C(=O)O", "%", 0),
    ("N=C(N)NCCC[C@H](N)C(=O)O", "%", 0),
    ("N[C@@H](Cc1ccccc1)C(=O)O", "%", 0),
    ("N[C@@H](CCC(=O)O)C(=O)O", "%", 0),
    ("CC(C)C[C@H](N)C(=O)O", "%", 0),
    ("O=C(O)[C@@H]1CCCN1", "%", 0),
    ("OC[C@@H](O)[C@@H](O)[C@H](O)[C@@H](O)CO", "%", 0),
    ("N[C@@H](Cc1c[nH]cn1)C(=O)O", "%", 0),
    ("CC(C)[C@H](N)C(=O)O", "%", 0),
    ("CSCC[C@H](N)C(=O)O", "%", 0),
]
